test system: NCI/ADR-RES ovarian; test: NCI-60 one-dose screen, 48 h; settings: 10 µM unless noted
Compounds without any hit were thinned out: in the full panel of roughly 83,000, 20% have a hit. Active and inactive are the calls of the source. The calls were made as follows: active = growth percent below 10; inactive = the rest.
Outcomes: yes for active, no for inactive

INSERT INTO assay_data (compound, class) VALUES
  ('Cc1ccc2cccc(Oc3ccc(Nc4ncnc5onc(-c6ccccc6)c45)cc3)c2n1', 'no'),
  ('COc1ccc(-c2cn[nH]c2-c2ccc(OC)c(O)c2)cc1', 'no'),
  ('O=C1Nc2ccccc2/C1=C/c1cccs1', 'no'),
  ('O=C(CCc1nnc2sc(COc3ccccc3)nn12)c1nc2ncccc2[nH]1', 'no'),
  ('CCOc1cc2c(cc1OCC)C(c1cc(C)c(O)c(C)c1)NCC2 (configuration not stated)', 'no'),
  ('O=C(Nc1ccc(F)cc1F)c1cc(Br)ccc1O', 'yes'),
  ('Nc1ccccc1-c1ccc(-c2ccc(Cl)cc2)c2c1[nH]c1ccccc12', 'no'),
  ('FC(F)(F)c1cccc(Nc2nc3ccccc3nc2Nc2cccc(C(F)(F)F)c2)c1', 'no'),
  ('Oc1c(CN2CCN(c3ccccc3F)CC2)cc(Br)c2cccnc12', 'no'),
  ('Cc1ccc(S(=O)(=O)c2c(COC(=O)c3cccc(C)c3)c(-c3ccccc3)nn2C)cc1', 'no'),
  ('CC(=O)c1ccc(NC(=O)Nc2ccc(S(=O)(=O)Nc3ccc(Cl)nn3)cc2)cc1', 'no'),
  ('COc1ccccc1N1CCN(C(CNS(=O)(=O)c2ccc(Cl)cc2)c2cccnc2)CC1 (configuration not stated)', 'no'),
  ('O=C(CSc1nc2ccccc2c(=O)n1-c1ccccc1)Nc1ccc(C(=O)/C=C/c2ccc(Cl)cc2)cc1', 'no'),
  ('COC(=O)/C(CCC=C(C)C)=C1\[C@@H](OC(C)=O)C[C@@]2(C)[C@H]1C[C@@H](O)[C@H]1[C@@]3(C)CC[C@H](NCCCNCCCCNCCCN)[C@@H](C)[C@@H]3CC[C@@]12C', 'no'),
  ('O=c1oc2ccc(Cl)cc2c(=O)n1-c1cc(C(F)(F)F)cc(C(F)(F)F)c1', 'yes'),
  ('Cc1ccc2c(n1)C(=O)C(Oc1ccc(Br)cc1)=CC2=O', 'no'),
  ('CC1=NCC2NC(=O)NC(C)=C12 (configuration not stated)', 'no');

====

test system: A498 renal; assay: NCI-60 one-dose screen, 48 h; conditions: 10 µM unless noted
The panel holds about 83,000 compounds, 20% with a hit somewhere; the sample as a whole holds those more often. Calls of active or inactive are those of the source. How the source made its calls: active means growth percent below 10; inactive means the rest.
Outcome codes: TRUE (active), FALSE (inactive)

INSERT INTO measurements (molecule, class) VALUES
  ('NCCCNc1nc2ccccc2c2c(=O)c3cc(F)ccc3sc12', 'FALSE'),
  ('O=C(N/N=C/c1ccccc1O)C(=O)Nc1ccc(F)cc1', 'FALSE'),
  ('COC(=O)c1cc2c(n1Cc1ccccc1)-c1oncc1CCC2', 'FALSE'),
  ('Cc1[nH]c2ccccc2c(=O)c1CC=C(Cl)Cl', 'FALSE'),
  ('O=c1oc2ccc(Br)cc2c(=O)n1-c1ccc(F)cc1F', 'TRUE'),
  ('COc1cccc2c(=O)c3c(sc12)c(NCCCNCCO)nc1ccccc13', 'FALSE'),
  ('Oc1ccc(-c2nc(-c3ccc4oc5ccc(-c6[nH]c(-c7ccc(O)cc7)nc6-c6ccccc6)cc5c4c3)c(-c3ccccc3)[nH]2)cc1', 'FALSE'),
  ('COc1ccc(S(=O)(=O)N(Cc2ccc3c(n2)C=CC(C)(C)O3)C2CCC2)cc1OC', 'TRUE'),
  ('COc1cc(CNC(=O)c2ccsc2Nc2ccnc(C(F)(F)F)c2)ccc1O', 'FALSE'),
  ('Cc1ccc(Nc2nc(N)c3ccccc3n2)cc1Cl', 'FALSE'),
  ('CCCc1c(C)c2sc(=O)[nH]c2[nH]c1=O', 'FALSE'),
  ('FC(F)(F)c1cccc(Nc2nc(-c3ccccc3)nc3ncccc23)c1', 'TRUE'),
  ('O=c1c(-c2nc3ccccc3[nH]2)cc2ccccc2n1Cc1cn(Cc2ccc(N3CCOCC3)cc2)nn1', 'FALSE'),
  ('Cc1ccccc1CNC(=O)C1CN(c2ccc(Cl)cc2)N(c2ccc(Cl)cc2)C1=O (centres undefined)', 'FALSE'),
  ('COc1ccc(/C=C2\SC(=Nc3ccccc3)NC2=O)cc1', 'TRUE'),
  ('O=S(=O)(Nc1ncccn1)c1ccc(NC2Nc3nc4ccccc4nc3S2)cc1 (centres undefined)', 'FALSE'),
  ('CCOC(=O)c1sc(-c2ccc(OS(=O)(=O)c3ccc(Br)s3)c(C=O)c2)nc1C', 'FALSE'),
  ('CCCCOCc1cc(CN2CCN(C)CC2)c(O)c2ncccc12', 'FALSE'),
  ('CCCCCCc1cc2cc(-c3nc4ccccc4[nH]3)c(=Nc3ccccc3C)oc2cc1O', 'FALSE'),
  ('CSc1nc2c(c(=O)n1C)N=C1c3ccccc3C(=O)C1C(c1ccccc1)N2 (centres undefined)', 'FALSE'),
  ('Oc1c(C(Nc2ccccn2)c2cccc(Oc3ccccc3)c2)ccc2cccnc12 (centres undefined)', 'TRUE'),
  ('COc1ccc(/C=C2/SC(=O)N(CC(=O)N3CCN(c4cc5c(cc4F)c(=O)c(C(=O)O)cn5C4CC4)CC3)C2=O)cc1', 'FALSE'),
  ('O=c1c2cc(F)cc(Cl)c2sc2c(Cl)nc3ccccc3c12', 'FALSE'),
  ('O=C(Nc1ccc(C23CC4CC(CC(c5ccccc5)(C4)C2)C3)cc1)c1cccs1', 'FALSE'),
  ('O=C1CCC(N2C(=O)c3cccc(NCCCCCCOc4ccc(Nc5nccc(Nc6ccccc6)n5)cc4)c3C2=O)C(=O)N1 (centres undefined)', 'FALSE'),
  ('Cc1nc(Nc2ccccn2)sc1C(=O)/C=C/c1ccc(Cl)cc1', 'TRUE'),
  ('COc1ccc(-n2c(C(O)c3ccccc3)n[nH]c2=S)cc1 (centres undefined)', 'FALSE'),
  ('O=c1oc2ccc(Cl)cc2c(=O)n1-c1ccc(Cl)cc1F', 'TRUE'),
  ('COc1cc(/C=C2\CN(S(=O)(=O)c3ccccc3)C/C(=C\c3cc(CN4CCCC4)c(O)c(OC)c3)C2=O)cc(CN2CCCC2)c1O', 'TRUE');

====

test system: UO-31 renal; assay: NCI-60 one-dose screen, 48 h; settings: 10 µM unless noted
Compounds without any hit were thinned out: in the full panel of roughly 83,000, 20% have a hit. The source made the active and inactive calls. Rule for the calls: active = growth percent below 10; inactive = the rest.
Labels: active, inactive

INSERT INTO measurements (compound_structure, tested_on, class) VALUES
  ('c1ccc2cc3c(Nc4ccc(N5CCOCC5)cc4)ccnc3cc2c1', 'UO-31 renal', 'inactive'),
  ('COc1cc2nc(-c3cnc(N(C)C)nc3)nc(NC3CCN(Cc4ccccc4)CC3)c2cc1OC', 'UO-31 renal', 'active'),
  ('O=C1c2cc(I)ccc2Oc2cc([N+](=O)[O-])ccc2N1c1ccc(Cl)cc1F', 'UO-31 renal', 'inactive');

====

Entries annotated with measured growth
Tested on: CAKI-1 renal
Test: NCI-60 one-dose screen, 48 h (100 = growth as untreated, 0 = no growth, -100 = all killed)
Conditions: 10 µM unless noted
Description: Growth inhibition of the CAKI-1 human tumor cell line is measured as a screen for anti-cancer activity. Cells are grown in 96 well plates and exposed to the test compound for 48 hours. Compounds are tested at a single concentration, which is 10^-5 M for most compounds. The reported endpoint is percent growth (GI% or GIPRCNT), where numbers from 0 - 100% represent growth inhibition, and numbers from -100% - 0 represent cell death. For example, a value of 40 represents 60% growth inhibition. […]
Compounds without any hit were thinned out: in the full panel of roughly 83,000, 20% have a hit.
endpoint: growth (%)

INSERT INTO assay_data (compound_structure, measured) VALUES
  ('COc1cc2cc3c(=O)n4c(cc5cc(OC)ncc54)c(=O)n3c2cn1', 98.4),
  ('COc1ccccc1N1C(=N)S/C(=C\c2ccc(OCc3ccccc3F)cc2)C1=O', 81.6),
  ('COc1ccc2sc3c(NCCCN)nc4ccccc4c3c(=O)c2c1', 73),
  ('Nc1nonc1-n1nncc1-c1cccnc1', 95.1),
  ('Cc1nc2ccccc2c(/C=C/c2ccccc2)c1C(=O)/C=C/c1ccc(Cl)cc1', 12.6),
  ('CCCC(=O)CC(C)=O.CCCC(=O)CC(C)=O.[Cu]', 103),
  ('O=c1oc2ccc(Br)cc2c(=O)n1-c1ccc(Cl)cc1F', -18.1);

====

tested on: SF-539 CNS; assay: NCI-60 one-dose screen, 48 h; conditions: 10 µM unless noted
The panel holds about 83,000 compounds, 20% with a hit somewhere; the sample as a whole holds those more often. Active and inactive are the calls of the source. How the source made its calls: active means growth percent below 10; inactive means the rest.
Classes used: true for active, false for inactive

INSERT INTO results (compound, class) VALUES
  ('CCOc1cc2c(cc1OCC)C(c1cc(C)c(O)c(C)c1)NCC2 (configuration not stated)', 'false'),
  ('Nc1nonc1-n1nncc1-c1cccnc1', 'false'),
  ('Cn1cc([C@@H]2Nc3ccc4[nH]ncc4c3[C@H]3[C@H]4CCC(C4)[C@H]32)c(C(F)(F)F)n1', 'false'),
  ('COc1ccc(/C(C#N)=C/c2nc3c(N4CCOCC4)nc(Cl)nc3n2C)cc1OC', 'true'),
  ('NCCCNc1nc2ccccc2c2c(=O)c3cc(F)ccc3sc12', 'false'),
  ('Cc1cccc2c(=O)c3c(sc12)c(NCCCNCCO)nc1ccccc13', 'false'),
  ('CC(=O)n1cc(-c2c[nH]c3ccccc23)c(-c2ccc(Cl)cc2)n1', 'false');

FYI, the data here is from PubChem BioAssay (NCI).
